system: PC3-PIP tumor model; set-up: species or system mice; conditions: mouse, in vivo
Numbered stars: 1 amine (or outer) side, 2 acyl side, 3 side chain; on linkers, the order of the positions; unused ones are H or OH. Bridge positions count the residues as written; N and C are the ends. Square brackets hold non-standard residues; d marks the D form. Peptide text beside a SMILES is read from it. * marks the point of attachment. X3 = O=C(O)CN1CCN(CC(=O)O)CCN(CC(=O)NCCCOCCOCCOCCCN*)CCN(CC(=O)O)CC1; Suc = O=C(CCC(=O)[*:2])[*:1]; Tle = CC(C)(C)[C@H](N)C(=O)O; Aib = CC(C)(N)C(=O)O
experimental-readout: Tumor AUC (% ID/g*h)

1) C[C@@H]1NC(=O)[C@H](CCCNC(=N)N)NC(=O)[C@H](CCCCN)NC(=O)[C@@H](NC(=O)[C@H](Cc2ccccc2)NC(=O)C(C)(C)NC(=O)[C@@H](NC(=O)CCC(=O)NCCCOCCOCCOCCCNC(=O)CN2CCN(CC(=O)O)CCN(CC(=O)O)CCN(CC(=O)O)CC2)[C@@H](C)O)CSSC[C@@H](C(=O)N[C@H](C(=O)N[C@H](C(N)=O)[C@@H](C)O)C(C)(C)C)NC(=O)[C@H](CC(N)=O)NC1=O [PSM-0237] ({X3-Suc}-T[Aib]FCKRANC[Tle]T-NH2; disulfide 4-9) = 180

* * *

molecular target: PSMA-expressing C4-2 cells (Homo sapiens, UniProt Q04609); construct: PSMA-expressing C4-2 cells (ATCC, Cat. No. CRL-3314) were cultured in RPMI-1640; host or cells: C4-2 cells; assay: FACS binding assay (competition with 50 nM PSM-0183); conditions: pIC50 category of FACS binding, C4-2 cells; read-out: pIC50 [C4-2] CAT (converted)
Sequence (Q04609 whole entry): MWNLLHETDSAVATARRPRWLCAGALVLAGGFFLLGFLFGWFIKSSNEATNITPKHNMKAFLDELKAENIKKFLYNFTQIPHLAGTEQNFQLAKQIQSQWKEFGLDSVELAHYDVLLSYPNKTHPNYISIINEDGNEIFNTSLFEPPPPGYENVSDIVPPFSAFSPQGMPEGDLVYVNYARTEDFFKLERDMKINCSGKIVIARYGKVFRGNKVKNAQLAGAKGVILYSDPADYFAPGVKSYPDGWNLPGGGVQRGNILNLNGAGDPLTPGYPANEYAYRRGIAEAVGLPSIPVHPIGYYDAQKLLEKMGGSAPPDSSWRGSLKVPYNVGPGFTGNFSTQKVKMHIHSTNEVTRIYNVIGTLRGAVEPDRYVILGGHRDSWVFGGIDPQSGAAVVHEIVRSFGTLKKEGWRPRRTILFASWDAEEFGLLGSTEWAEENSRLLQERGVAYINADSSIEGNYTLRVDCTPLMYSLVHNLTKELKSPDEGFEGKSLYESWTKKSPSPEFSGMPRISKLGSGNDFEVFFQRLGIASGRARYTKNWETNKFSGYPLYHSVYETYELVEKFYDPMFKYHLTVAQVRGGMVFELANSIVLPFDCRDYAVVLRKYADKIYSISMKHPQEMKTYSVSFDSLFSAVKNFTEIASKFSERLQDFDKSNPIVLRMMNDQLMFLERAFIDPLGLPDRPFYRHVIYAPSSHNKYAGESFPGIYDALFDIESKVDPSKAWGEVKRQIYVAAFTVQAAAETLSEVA
Numbered stars: 1 amine (or outer) side, 2 acyl side, 3 side chain; on linkers, the order of the positions; unused ones are H or OH. Bridge positions count the residues as written; N and C are the ends. Square brackets hold non-standard residues; d marks the D form. Peptide text beside a SMILES is read from it. * marks the point of attachment. DOTA = O=C(O)CN1CCN(CC(=O)O)CCN(CC(=O)*)CCN(CC(=O)O)CC1; Phe(4-Cl) = N[C@@H](Cc1ccc(Cl)cc1)C(=O)O; Phe(2-Cl) = N[C@@H](Cc1ccccc1Cl)C(=O)O; X1 = O=C(CC1CCN([*:1])CC1)[*:2]; Tle = CC(C)(C)[C@H](N)C(=O)O; 4Amb = NCc1ccc(C(=O)O)cc1; αMeS = C[C@](N)(CO)C(=O)O; Nle = CCCC[C@H](N)C(=O)O; Aib = CC(C)(N)C(=O)O; Ahx = NCCCCCC(=O)O; βAla = NCCC(=O)O
List of IC50 values.
experimental-readout: IC50

1. CC(=O)N[C@H](C(=O)NC(C)(C)C(=O)N[C@@H](Cc1ccccc1Cl)C(=O)N[C@H]1CSSC[C@@H](C(=O)N[C@H](C(=O)N[C@H](C(=O)N[C@@H](CC(=O)O)C(N)=O)[C@@H](C)O)C(C)(C)C)NC(=O)[C@H](CC(N)=O)NC(=O)C(C)(C)NC(=O)[C@H](CCCNC(=N)N)NC(=O)[C@H](CCCCN)NC1=O)[C@@H](C)O [PSM-0558] (Ac-T[Aib][Phe(2-Cl)]CKR[Aib]NC[Tle]TD-NH2; disulfide 4-9) = < 200 nM
2. C[C@@H](O)[C@H](NC(=O)[C@@H](NC(=O)[C@@H]1CSSC[C@H](NC(=O)[C@H](Cc2ccccc2)NC(=O)C(C)(C)NC(=O)[C@@H](NC(=O)CCCCCNC(=O)CN2CCN(CC(=O)O)CCN(CC(=O)O)CCN(CC(=O)O)CC2)[C@@H](C)O)C(=O)N[C@@H](CCCCN)C(=O)N[C@@H](CCCNC(=N)N)C(=O)NC(C)(C)C(=O)N[C@@H](CC(N)=O)C(=O)N1)C(C)(C)C)C(N)=O [PSM-0368] ({DOTA-Ahx}-T[Aib]FCKR[Aib]NC[Tle]T-NH2; disulfide 4-9) = < 200 nM
3. C[C@@H](O)[C@H](NC(=O)[C@@H](NC(=O)[C@@H]1CSSC[C@H](NC(=O)[C@H](Cc2ccc(Cl)cc2)NC(=O)[C@](C)(CO)NC(=O)[C@@H](NC(=O)CC2CCN(C(=O)CN3CCN(CC(=O)O)CCN(CC(=O)O)CCN(CC(=O)O)CC3)CC2)[C@@H](C)O)C(=O)N[C@@H](CCCCN)C(=O)N[C@@H](CCCNC(=N)N)C(=O)N[C@@](C)(CO)C(=O)N[C@@H](CC(N)=O)C(=O)N1)C(C)(C)C)C(N)=O [PSM-0407] ({DOTA}-[X1]T[αMeS][Phe(4-Cl)]CKR[αMeS]NC[Tle]T-NH2; disulfide 5-10) = < 200 nM
4. CCCC[C@H](NC(=O)[C@@H]1CSSC[C@H](NC(=O)[C@H](Cc2ccccc2)NC(=O)[C@H](C)NC(=O)[C@H](CO)NC(C)=O)C(=O)N[C@@H](CCCCN)C(=O)N[C@@H](CCCNC(=N)N)C(=O)N[C@@H](C)C(=O)N[C@@H](CC(N)=O)C(=O)N1)C(=O)N[C@H](C(=O)N[C@@H](CC(=O)O)C(N)=O)[C@@H](C)O [PSM-0469] (Ac-SAFCKRANC[Nle]TD-NH2; disulfide 4-9) = < 200 nM
5. CC(C)(NC(=O)c1ccc(CNC(=O)CN2CCN(CC(=O)O)CCN(CC(=O)O)CCN(CC(=O)O)CC2)cc1)C(=O)N[C@@H](Cc1ccc(Cl)cc1)C(=O)N[C@H]1CSSC[C@@H](C(=O)N[C@H](C(=O)NCCC(N)=O)C(C)(C)C)NC(=O)[C@H](CC(N)=O)NC(=O)C(C)(C)NC(=O)[C@H](CCCNC(=N)N)NC(=O)[C@H](CCCCN)NC1=O [PSM-0432] ({DOTA-4Amb}-[Aib][Phe(4-Cl)]CKR[Aib]NC[Tle][βAla]-NH2; disulfide 3-8) = < 200 nM

* * *

target: Fc-fusion protein of human PSMA (hPSMA-Fc) (Homo sapiens, UniProt Q04609); construct: purchased Acro Biosystems PSA-H5264; experiment: Surface plasmon resonance assay (Biacore T200, single cycle kinetic); assay type: binding; conditions: pKD category for PSMA SPR activity assay, hPSMA-Fc, 25° C.; read-out: pKD CAT (converted)
Numbered stars: 1 amine (or outer) side, 2 acyl side, 3 side chain; on linkers, the order of the positions; unused ones are H or OH. Bridge positions count the residues as written; N and C are the ends. Square brackets hold non-standard residues; d marks the D form. Peptide text beside a SMILES is read from it. * marks the point of attachment. X3 = O=C(O)CN1CCN(CC(=O)O)CCN(CC(=O)NCCCOCCOCCOCCCN*)CCN(CC(=O)O)CC1; DOTA = O=C(O)CN1CCN(CC(=O)O)CCN(CC(=O)*)CCN(CC(=O)O)CC1; Phe(4-Cl) = N[C@@H](Cc1ccc(Cl)cc1)C(=O)O; Phe(4-F) = N[C@@H](Cc1ccc(F)cc1)C(=O)O; Phe(4-Me) = Cc1ccc(C[C@H](N)C(=O)O)cc1; 2Nal = N[C@@H](Cc1ccc2ccccc2c1)C(=O)O; Arg(Me) = CNC(=N)NCCC[C@H](N)C(=O)O; X1 = O=C(CC1CCN([*:1])CC1)[*:2]; Lys(Me) = CNCCCC[C@H](N)C(=O)O; NMeK = CN[C@@H](CCCCN)C(=O)O; Suc = O=C(CCC(=O)[*:2])[*:1]; Tle = CC(C)(C)[C@H](N)C(=O)O; Isovaleryl = CC(C)CC(=O)*; αMeS = C[C@](N)(CO)C(=O)O; Aib = CC(C)(N)C(=O)O; βAla = NCCC(=O)O
List of Kd values.
experimental-readout: Kd

1. CC(=O)N[C@H](C(=O)NC(C)(C)C(=O)N[C@@H](Cc1ccc2ccccc2c1)C(=O)N[C@H]1CSSC[C@@H](C(=O)N[C@H](C(=O)N[C@H](C(=O)N[C@@H](CC(=O)O)C(N)=O)[C@@H](C)O)C(C)(C)C)NC(=O)[C@H](CC(N)=O)NC(=O)C(C)(C)NC(=O)[C@H](CCCNC(=N)N)NC(=O)[C@H](CCCCN)NC1=O)[C@@H](C)O [PSM-0517] (Ac-T[Aib][2Nal]CKR[Aib]NC[Tle]TD-NH2; disulfide 4-9) = < 12.6 nM
2. C[C@@H](O)[C@H](NC(=O)[C@@H](NC(=O)[C@@H]1CSSC[C@H](NC(=O)[C@H](Cc2ccc(Cl)cc2)NC(=O)C(C)(C)NC(=O)[C@@H](NC(=O)CC2CCN(C(=O)CN3CCN(CC(=O)O)CCN(CC(=O)O)CCN(CC(=O)O)CC3)CC2)[C@@H](C)O)C(=O)N(C)[C@@H](CCCCN)C(=O)N[C@@H](CCCNC(=N)N)C(=O)NC(C)(C)C(=O)N[C@@H](CC(N)=O)C(=O)N1)C(C)(C)C)C(N)=O [PSM-0548] ({DOTA}-[X1]T[Aib][Phe(4-Cl)]C[NMeK]R[Aib]NC[Tle]T-NH2; disulfide 5-10) = 12.6 to 126 nM
3. CNCCCC[C@@H]1NC(=O)[C@@H](NC(=O)[C@H](Cc2ccc(F)cc2)NC(=O)C(C)(C)NC(=O)[C@@H](NC(=O)CC2CCN(C(=O)CN3CCN(CC(=O)O)CCN(CC(=O)O)CCN(CC(=O)O)CC3)CC2)[C@@H](C)O)CSSC[C@@H](C(=O)N[C@H](C(N)=O)C(C)(C)C)NC(=O)[C@H](CC(N)=O)NC(=O)C(C)(C)NC(=O)[C@H](CCCNC(=N)NC)NC1=O [PSM-0395] ({DOTA}-[X1]T[Aib][Phe(4-F)]C[Lys(Me)][Arg(Me)][Aib]NC[Tle]-NH2; disulfide 5-10) = < 12.6 nM
4. CC(=O)N[C@H](C(=O)NC(C)(C)C(=O)N[C@@H](Cc1ccccc1)C(=O)N[C@H]1CSSC[C@@H](C(=O)N[C@H](C(=O)NCCC(N)=O)C(C)(C)C)NC(=O)[C@H](CC(N)=O)NC(=O)C(C)(C)NC(=O)[C@H](CCCNC(=N)N)NC(=O)[C@H](CCCCN)NC1=O)[C@@H](C)O [PSM-0426] (Ac-T[Aib]FCKR[Aib]NC[Tle][βAla]-NH2; disulfide 4-9) = < 12.6 nM
5. CC(C)CC(=O)NC(C)(C)C(=O)N[C@@H](Cc1ccc(Cl)cc1)C(=O)N[C@H]1CSSC[C@@H](C(=O)N[C@H](C(=O)N[C@H](C(=O)N[C@H](CCCCNC(=O)CN2CCN(CC(=O)O)CCN(CC(=O)O)CCN(CC(=O)O)CC2)C(N)=O)[C@@H](C)O)C(C)(C)C)NC(=O)[C@H](CC(N)=O)NC(=O)C(C)(C)NC(=O)[C@H](CCCNC(=N)N)NC(=O)[C@H](CCCCN)NC1=O [PSM-0444] (Isovaleryl-[Aib][Phe(4-Cl)]CKR[Aib]NC[Tle]T[dK](DOTA)-NH2; disulfide 3-8) = < 12.6 nM
6. CC(=O)N[C@H](C(=O)NC(C)(C)C(=O)N[C@@H](Cc1ccc(C)cc1)C(=O)N[C@H]1CSSC[C@@H](C(=O)N[C@H](C(=O)N[C@H](C(N)=O)[C@@H](C)O)C(C)(C)C)NC(=O)[C@H](CC(N)=O)NC(=O)C(C)(C)NC(=O)[C@H](CCCNC(=N)N)NC(=O)[C@H](CCCCN)NC1=O)[C@@H](C)O [PSM-0372] (Ac-T[Aib][Phe(4-Me)]CKR[Aib]NC[Tle]T-NH2; disulfide 4-9) = < 12.6 nM
7. CCCC[C@H](NC(=O)[C@@H]1CSSC[C@H](NC(=O)[C@H](Cc2ccccc2)NC(=O)[C@H](C)NC(=O)[C@@H](NC(C)=O)[C@@H](C)O)C(=O)N[C@@H](CCCCN)C(=O)N[C@@H](CCCNC(=N)N)C(=O)N[C@@H](C)C(=O)N[C@@H](CC(N)=O)C(=O)N1)C(=O)N[C@H](C(=O)N[C@H](CC(=O)O)C(N)=O)[C@@H](C)O [PSM-0389] = 12.6 to 126 nM
8. C[C@@H](O)[C@H](NC(=O)[C@@H](NC(=O)[C@@H]1CSSC[C@H](NC(=O)[C@H](Cc2ccc(Cl)cc2)NC(=O)[C@](C)(CO)NC(=O)[C@@H](NC(=O)CC2CCN(C(=O)CN3CCN(CC(=O)O)CCN(CC(=O)O)CCN(CC(=O)O)CC3)CC2)[C@@H](C)O)C(=O)N[C@@H](CCCCN)C(=O)N[C@@H](CCCNC(=N)N)C(=O)NC(C)(C)C(=O)N[C@@H](CC(N)=O)C(=O)N1)C(C)(C)C)C(N)=O [PSM-0369] ({DOTA}-[X1]T[αMeS][Phe(4-Cl)]CKR[Aib]NC[Tle]T-NH2; disulfide 5-10) = < 12.6 nM
9. CC(C)C[C@H](NC(=O)[C@@H]1CSSC[C@H](NC(=O)[C@H](Cc2ccccc2)NC(=O)[C@H](C)NC(=O)[C@@H](NC(=O)CCC(=O)NCCCOCCOCCOCCCNC(=O)CN2CCN(CC(=O)O)CCN(CC(=O)O)CCN(CC(=O)O)CC2)[C@@H](C)O)C(=O)N[C@@H](CCCCN)C(=O)N[C@@H](CCCNC(=N)N)C(=O)N[C@@H](C)C(=O)N[C@@H](CC(N)=O)C(=O)N1)C(N)=O [PSM-0480] ({X3-Suc}-TAFCKRANCL-NH2; disulfide 4-9) = 126 to 501 nM
